# measurement protocol: Cmax in Balb/c mouse at 10 mg/kg, iv
# Assay type: ADME, organism-based
# Design: route intravenous, dose 10 mg/kg
# condition set: in vivo
test readout: Cmax (ng/mL)
Number in ng/mL, nothing else.

The measured Cmax associated with O=C(NO)c1ccc(CCCN2CCC(CN[C@H]3C[C@@H]3c3ccccc3)CC2)cc1 (racemic) reads 821

###

# measurement protocol: Stability in human liver microsomes assessed as parent compound remaining measured after 30 mins
# Format: ADME, Microsome
# condition set: liver microsomes, read-out: Stabilty
test readout: remaining at 0.5 h (%)
Number in %, nothing else.

Solved entries (count: 5):
| compound | readout unit | remaining at 0.5 h |
| --- | --- | --- |
| O=C(NO)c1coc(CCCN2CCC(CN[C@H]3C[C@@H]3c3ccccc3)CC2)n1 (racemic) | % | 78 |
| Cn1ccc(-c2ccc([C@H]3C[C@@H]3NCC3CCN(CCCc4ccc(C(=O)NO)cc4)CC3)cc2)cc1=O (racemic) | % | 73 |
| O=C(CCCCCCNC(=O)c1cnc(N(c2ccccc2)c2ccccc2)nc1)NO [RICOLINOSTAT] | % | 93 |
| O=C(NO)c1ccc(CCCN2CCC(CN[C@H]3C[C@@H]3c3ccc(-c4ccc(F)cc4)cc3)CC2)cc1 (racemic) | % | 92 |
| O=C(NO)c1ccc(CCCN2CCC(CN[C@H]3C[C@@H]3c3ccc(OCc4ccc(F)cc4)cc3)CC2)cc1 (racemic) | % | 79 |

The measured remaining at 0.5 h associated with O=C(NO)c1ccc(CCCN2CCC(CN[C@H]3C[C@@H]3c3ccc(F)cc3)CC2)cc1 (racemic) reads 54

The measured remaining at 0.5 h associated with O=C(NO)c1ccc(CCCN2CCC(CN[C@H]3C[C@@H]3c3ccc(C(=O)N4CCOCC4)cc3)CC2)cc1 (racemic) reads 89

The measured remaining at 0.5 h associated with O=C(NO)c1cnc(CCCN2CCC(CN[C@H]3C[C@@H]3c3ccccc3)CC2)s1 (racemic) reads 90

The measured remaining at 0.5 h associated with `O=C(NO)c1ccc(CCCN2CCC(CN[C@@H]3C[C@H]3c3ccccc3)CC2)cc1` reads 38
